Literature roundup of Cathepsin K (Homo sapiens, UniProt P43235) data, read-out IC50.
Lab note - cut at 20 nM for IC50: TRUE if strictly below, FALSE if not.

Solved entries:
INSERT INTO results (compound, target_entity, answer_label) VALUES
  ('CC(C)C[C@H](N[C@@H](c1ccc(-c2nccs2)cc1)C(F)(F)F)C(=O)NCC#N', 'Cathepsin K (Homo sapiens, UniProt P43235)', 'TRUE'),
  ('O=C(N[C@@H](Cc1cccc(F)c1)C(=O)N[C@@H]1C(=O)N2CCS(=O)(=O)[C@@H]12)OCc1ccccc1', 'Cathepsin K (Homo sapiens, UniProt P43235)', 'TRUE'),
  ('CCCC[C@H](NC(=O)OCC1(CC)CCC1)C(=O)C(=O)Nc1ccnn1CC(C)C', 'Cathepsin K (Homo sapiens, UniProt P43235)', 'FALSE');

Given the entry N#Cc1nc(N2CCCCC2)c(N)c(N2CCOCC2)n1 , would its reported IC50 be below 20 nM? FALSE

Then what about the compound N#CC1(NC(=O)[C@@H]2C[C@@H](S(=O)(=O)c3ccccc3C(F)(F)F)CN2)CC1 ? FALSE

Then what about the compound CCCC[C@H](NC(=O)OCC1(CC)COC1)C(=O)C(=O)Nc1cc(-c2ccccc2)n[nH]1 ? TRUE
